# measured.target: Muscarinic acetylcholine receptor M4 (Homo sapiens)
# test.summary: compounds altering M4/GIRK thallium flux, either direction, primary screen, M4 allosteric agonist project, cell-based, HEK293 M4/GIRK, BTC-AM (AID 625);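 further: thallium influx through GIRK channels coupled to M4 in HEK293 cells with BTC-AM dye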
# run.parameters: at 10 µM, actives lie on both sides
Decide using fluorescence slope alone. Strictly below 0.006: t. Equal to or above 0.006: f.

CCCCc1c(C)c2ccc(OCC(C)=O)cc2oc1=O
f

Incoming: Determine whether this compound shows fluorescence slope lower than 0.006 (ties excluded): N#CC1(c2ccccc2)CCC(=NO)CC1 (stereo not given)
Outgoing: t

Incoming: Input "COc1ccc(Cn2c(N)c(C#N)c3nc4ccccc4nc32)cc1OC" ; condition: fluorescence slope strictly below 0.006. Does it hold?
Outgoing: t

Incoming: I wonder whether "Nc1nnnn1/N=C/c1ccccn1" has fluorescence slope below 0.006. Can you tell?
Outgoing: t

Incoming: I wonder whether "O=C(NCc1cccnc1)/C(=N\O)c1ccccc1" has fluorescence slope below 0.006. Can you tell?
Outgoing: t

Incoming: Does the reported fluorescence slope of "Nn1c(SCC(=O)Nc2ccc3c(c2)OCCO3)nnc1C(F)(F)F" stay below 0.006?
Outgoing: t

----------
# test.summary: inhibitors of TNFa-induced NFkB p65 translocation, primary screen, imaging, HUVEC, MLSMR starter and 10KST1 sets (AID 438);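 further: compound added about 3h40 before a 20 min TNFalpha stimulation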
# run.parameters: HUVEC TNFa-induced p65 nuclear translocation; measured here: nuclei count (cytotoxicity indicator), at 2.08 µM
Classify as follows. Reported cell count greater than or equal to 500: y. Reported cell count below: n.

Worked set:
CCOC(=O)c1[nH]c2cc3c(cc2c1NC(=O)CN1CCc2ccccc2C1)OCO3
y
Cc1c(/C(O)=C2/C(=O)C(=O)N(CCCN3CCOCC3)C2c2ccncc2)cnn1-c1ccccc1 (stereo not given)
y
CC(C)c1nc(N2CCOCC2)c(C#N)c2c1CCC2
y
CN1c2ccccc2N(C)C1c1c(O)ccc2ccccc12
n
CCN(CC)CCNc1nc(-c2ccco2)c2c(c1C#N)CC(C)(C)OC2
y

Incoming: Please tell me: is the molecule "CCCCC[C@H](O)/C=C/C1=C(CCCCCCC(=O)O)C(=O)CC1" at or over 500 in terms of cell count?
Outgoing: y

Incoming: Hi team, for "CCCCOc1ccccc1C(=O)NCCCC(=O)O" , is the recorded cell count at or above 500?
Outgoing: y

Incoming: Check if cell count >= 500 (inclusive). Item: "O=C(c1ccc2c(c1)OCCO2)N1CCCCC1"
Outgoing: y

Incoming: Entry "CCOC(=O)CC(=O)CSc1[nH]c(=O)cc(C)c1C#N" : is its cell count no less than 500?
Outgoing: y

Incoming: Check if cell count >= 500 (inclusive). Item: "Cc1c(C)c2cc(Cl)c(O)c(CN3CCN(C)CC3)c2oc1=O"
Outgoing: n

Incoming: cell count >= 500 for CC(COc1ccccc1)NC(C)C(O)c1ccc(O)cc1 (stereo not given) ?
Outgoing: y

Incoming: Determine whether measured cell count meets or exceeds 500 for "N#CC1=C(N)NC(SCc2ccc(F)cc2)=C(C#N)C12CCCCC2"
Outgoing: y

Incoming: Check this molecule for cell count at or above 500: CCN(CC)CCCn1c(C)cc2c(c1=O)C(c1ccccc1)C(C#N)=C(N)O2 (stereo not given)
Outgoing: n

Incoming: Has "CCOc1cccc(-c2nnc3sc(COc4ccccc4)nn23)c1" a recorded cell count greater than or equal to 500?
Outgoing: y

Incoming: Hi, just wondering whether "CC(NC(=O)Nc1nccs1)(C(F)(F)F)C(F)(F)F" shows cell count of 500 or higher.
Outgoing: y

Incoming: In plain terms: is recorded cell count at least 500 for "CCO/C(C)=N/n1c2nc3ccccc3nc2c2c(=O)n(CC(C)C)c(C)nc21" ?
Outgoing: n

Incoming: In plain terms: is recorded cell count at least 500 for "CCOC(=O)c1cc(C)n(-c2ccc(OC)c(OC)c2)c1C" ?
Outgoing: y

Incoming: Does the molecule "CCOC(=O)c1ccccc1OCc1cc(/C=N/n2cncn2)ccc1OC" have recorded cell count that is 500 or more?
Outgoing: n

Incoming: Given "CCCCc1c(C)nn(-c2nnc3c4ccccc4n(C)c3n2)c1C" , state whether its cell count is at least 500.
Outgoing: y

Incoming: Please indicate if the recorded cell count for "Clc1ccc(-c2nnc3sc(Cc4cccs4)nn23)cc1" meets or exceeds 500.
Outgoing: y

All figures here come from PubChem BioAssay.
